Test system: Plasmodium falciparum
Test: Hit confirmation in dose-response curve in NF54 pLDH assay, at 72h
Format: functional, organism-based
Design: timepoint 72 hour
Details: NF54, Erythrocyte
# pIC50 per record follows
Please treat pIC50 as minus the base-10 logarithm of the molar concentration.

Some compounds with recorded pIC50:
structure_smiles=CC1CCN(c2nccnc2Oc2ccc(C(=O)NCc3ccccc3Cl)cc2)CC1 measured_endpoint=pIC50 recorded_value=5.02
structure_smiles=CC(C)c1nc(C(=O)Nc2[nH]c(=O)ncc2F)cs1 measured_endpoint=pIC50 recorded_value=8.67

// next item, pIC50 requested
Note to self: pIC50 recorded for Nc1nc(N2CCN(c3ccc(F)c(Cl)c3)CC2)cc([C@H]2C[C@@H](N)C2)n1 was 5.24
